Experiment: NCI Yeast Anticancer Drug Screen. Data for the sgs1 mgt1 strain (AID 161)
Settings: S. cerevisiae sgs1 mgt1 strain, at 50.0 µM (retest, dose inferred, filed as 5.0)
Compounds without any hit were thinned out: in the full panel of roughly 79,000, 15% have a hit. Calls of active or inactive are those of the source. No stated cut-off is given here; in the data, active means growth inhibition above about 70%; inactive means the rest.
Please reply with one of these outcomes: active, inactive

molecule: COc1ccc2c(c1)CC[C@@H]1[C@@H]2CC[C@]2(C)/C(=N/OCCN3CCCCC3)CC[C@@H]12
assignedCategory: active
//
molecule: CCCN1C(=O)c2ccccc2C1=O
assignedCategory: inactive
//
molecule: CN(C)CCC(=O)C(=Cc1cc(Cl)cc(Cl)c1)C(=O)CCN(C)C
assignedCategory: active
//
molecule: O=C(c1ccco1)N(C(=S)N1CCN(c2ccccn2)CC1)c1ccccc1
assignedCategory: active
//
molecule: C/C(CCSCc1ccccc1)=N/NC(N)=S
assignedCategory: active
//
molecule: CSc1nc(NN)cc(-c2ccccc2)n1
assignedCategory: inactive
//
molecule: CCCCCCCCC(=O)NCCN(CCN)C(=O)CCCCCCCC
assignedCategory: active
//
molecule: CC(=O)N(c1ccccc1)c1nc2ccccc2s1
assignedCategory: inactive

Per the assay record, what outcome was assigned to CC(=O)OCC(=O)[C@@]1(O)[C@H](C)C[C@H]2[C@@H]3C=C(C)C4=Cc5c(cnn5-c5ccccc5)C[C@]4(C)[C@@]3(F)[C@@H](O)C[C@@]21C ? active

Per the assay record, what outcome was assigned to Cc1cccc(C)c1N1C(=O)C2Nc3ccccc3SC2C1=O (stereo not drawn) ? active

Per the assay record, what outcome was assigned to CCC(CC)COC(=O)c1ccc(O)c(O)c1 ? active

Per the assay record, what outcome was assigned to CCOC1(OCC)Oc2c(Cl)c(Cl)c(Cl)c(Cl)c2OC1(OCC)OCC ? active

Per the assay record, what outcome was assigned to CCOC(=O)NC(NC(=O)OCC)C(=O)Nc1cccc2c(OC(=O)C(NC(=O)OCC)NC(=O)OCC)c(N=Nc3ccc(S(=O)(=O)Nc4nccs4)cc3)cc(N=Nc3ccc(S(=O)(=O)Nc4nccs4)cc3)c12 (tested in a mixture with another compound) ? inactive

Per the assay record, what outcome was assigned to c1ccc(N/N=C(/CC/C(=N\Nc2ccccc2)c2ccccc2)c2ccccc2)cc1 ? active

Per the assay record, what outcome was assigned to Cc1ccc(/C=C2\CCCc3ccccc3C2=O)cc1 ? inactive

Per the assay record, what outcome was assigned to CCCCCCCCCCCCCC(=O)OCC[N+](C)(C)C ? active

Per the assay record, what outcome was assigned to CCCCCc1ccc2cc(C(=O)O)[nH]c2c1 ? inactive

Per the assay record, what outcome was assigned to O=C(O)Cc1nc2ccccc2[nH]1 ? active

Per the assay record, what outcome was assigned to CCCCCCCCOc1ccc(/C=C/C(C)=N/NC(N)=NC)cc1OC ? active

Per the assay record, what outcome was assigned to CCC[CH2][Sn]([CH2]CCC)([O]C(=O)c1c(F)cccc1F)[O]C(=O)c1c(F)cccc1F ? active

Per the assay record, what outcome was assigned to O=C1c2ccc3ccccc3c2CN2C(=O)CCC12 (stereo not drawn) ? inactive
